Data credit: ChEMBL document CHEMBL3862035

Tested on: Mus musculus
protocol-notes: Inhibition of Shigella dysenteriae Shiga toxin-induced mortality in Balb/c mouse exposed to 5 x LD50 Shigella toxin assessed as increase in mouse survival at 2 mM, ip preincubated with Stx for 1 hr measured after 0 to 14 days
Format: functional, organism-based
Activity calls are given as the source filed them. The calls are words filed in the database; no cut-off is given here.
endpoint: inhibition

CC(=O)c1ccccc1NC(=O)c1ccccc1F; Active
CCCSCCNCCNC(=O)/C=C/c1ccccc1; Active
CC(=O)c1ccccc1NC(=O)/C=C\c1ccccc1; Active
O=C(NCCNCCSc1ccccc1)c1ccc([N+](=O)[O-])cc1; Active

---

Please provide measured MNTC at 24 h for the entries that follow.
protocol-notes: Cytotoxicity against African green monkey Vero cells incubated for 24 hrs by neutral red uptake assay
Type: toxicity, cell-based
condition-context: chlorocebus sabaeus, read-out: MTD
Number only, in µM; omit the unit.

[Q] What measured MNTC at 24 h goes with Cc1ccsc1-c1cc(=O)c2ccccc2[nH]1 ?
[A] 5.33

[Q] Consider next the compound CCCSCCNCCNC(=O)c1ccc(Cl)cc1 in the same way.
[A] 124

[Q] Now give it for O=C(/C=C/c1cccs1)c1ccccc1O too.
[A] 17

[Q] Another compound: O=C1NC(=O)C2N=CNC2N1 (stereo not drawn)
[A] 9.3

[Q] Proceed to c1ccc(SCCNCCN2CCCC2)cc1
[A] 63.3

[Q] Now try CCCCSCCNCCNP(=S)(OCC)OCC .
[A] 32.3

[Q] Okay, and S=C1N=CN=C2NC=NC12 (stereo not drawn) ?
[A] 18.7

[Q] Record: Nc1ncnc2c1ncn2[C@@H]1O[C@H](COP(=O)(O)O)[C@@H](O)[C@H]1O [ADENOSINE PHOSPHATE]
[A] 75

---

protocol-notes: Inhibition of Shigella dysenteriae type 2 Shiga toxin in African green monkey Vero cells assessed as inhibition of Stx-induced cytotoxicity incubated for 10 hrs by MTS/PMS assay
Format: cell-based
Record form. Attribute: IC50. Fill in for each entry.
Answer in µM, number only, no unit symbol.

[Q] Name the recorded IC50 for CCCCSCCNCCNP(=S)(OCC)OCC .
[A] 25

[Q] Input c1ccc(SCCNCCN2CCCC2)cc1
[A] 25

---

protocol-notes: Cytotoxicity against African green monkey Vero cells incubated for 24 hrs by neutral red uptake assay
Assay type: toxicity, cell-based
condition-context: chlorocebus sabaeus
endpoint: log10 of CC50 at 24 h (log10 of the value in µM)
In our notation, the value equals log10 of CC50 at 24 h in µM.

[Q] Which measured log10 of CC50 at 24 h value corresponds to CCCSCCNCCNC(=O)/C=C/c1ccccc1 ?
[A] 2.09

[Q] Another: CC(=O)c1ccccc1NC(=O)c1ccccc1F
[A] 2.08

[Q] Follow-up item: Nc1nc2nc[nH]c2c(=O)[nH]1
[A] 2.13

[Q] Moving on to O=C(NCCNCCSc1ccccc1)c1ccc([N+](=O)[O-])cc1
[A] 2.25

[Q] Queued: Oc1ncnc2[nH]ncc12
[A] 2.63

[Q] Next compound: CC(=O)c1ccccc1NC(=O)/C=C\c1ccccc1
[A] 1.47

---

protocol-notes: Cytotoxicity against African green monkey Vero cells incubated for 24 hrs by neutral red uptake assay
Format: toxicity, cell-based
condition-context: chlorocebus sabaeus, read-out: MTD
endpoint: MNTC at 24 h
Form entry: enter the amount, then its unit.

[Q] Requested field: MNTC at 24 h. Item: O=C1NCN=C2NC=NC12 (stereo unspecified)
[A] 125 µM

[Q] Now the same for Nc1ncnc2c1ncn2[C@@H]1O[C@H](CO)[C@@H](O)[C@H]1O
[A] 125 µM

[Q] What do we get for CC(=O)c1ccccc1NC(=O)c1ccc([N+](=O)[O-])cc1 ?
[A] 17.3 µM

[Q] Would you mind doing O=C(NCCNCCSc1ccccc1)c1ccc([N+](=O)[O-])cc1 as well?
[A] 15 µM

[Q] Likewise for Oc1ncnc2[nH]ncc12 ?
[A] 250 µM

[Q] How about Nc1ncnc2nn[nH]c12 ?
[A] 18.7 µM

[Q] Could you do the same for Nc1ncc2[nH]cnc2n1 , please?
[A] 125 µM

[Q] Subsequent entry: O=C(/C=C\c1ccccc1)NCCO
[A] 31.6 µM

[Q] Same question, O=C(/C=C/c1ccccc1)Oc1c(-c2ccccc2)oc2ccccc2c1=O this time
[A] 64 µM

[Q] Request: O=c1cc(-c2ccccc2F)[nH]c2ccccc12
[A] 5 µM

[Q] Next up: Cc1ncnc2nc[nH]c12
[A] 9.3 µM

[Q] CC(=O)c1ccccc1NC(=O)/C=C\c1ccccc1 ?
[A] 6.96 µM

[Q] Please answer likewise for Nc1ccncn1
[A] 250 µM

[Q] Again, but for O=C(/C=C/c1ccccc1)Nc1ccccc1O [N-(2-HYDROXYPHENYL)CINNAMAMIDE]
[A] 32 µM

[Q] Also check Oc1cc(/C=C/c2ccccc2)nc2ccccc12
[A] 9.33 µM

[Q] Now this one: Nc1nc2nc[nH]c2c(=O)[nH]1
[A] 125 µM
